- Target Under Test: 85/88 kDa calcium-independent phospholipase A2 (Homo sapiens)
- Test Details: Inhibition of human group 6A iPLA2 at 0.091 mol fraction by mixed micelle-based assay
Classify as follows. Reported inhibition greater than or equal to 90%: condition met. Reported inhibition below: condition not met.

INSERT INTO measurements (entry_smiles, class) VALUES
  ('O=C(CCCCCc1ccccc1)C(F)(F)C(F)(F)F', 'condition met'),
  ('CCCCCCCCCCOc1ccc(CCCCC(=O)C(F)(F)F)cc1', 'condition met'),
  ('CCCCCCCCCCCCCCCC(=O)C(F)(F)C(F)(F)F', 'condition not met'),
  ('O=C(CCCCCCc1ccccc1)C(F)(F)F', 'condition met'),
  ('CCCCCCOc1ccc(CCC(=O)C(F)(F)C(F)(F)F)cc1', 'condition met'),
  ('CCCCCCOc1ccc(CCC(=O)C(F)(F)F)cc1', 'condition not met'),
  ('CCCCCCCCCCOc1ccc(CCC(=O)C(F)(F)F)cc1', 'condition met');

* * *

- Target Under Test: Cytosolic phospholipase A2 (Homo sapiens) (UniProt P47712)
- Sequence (P47712 whole entry): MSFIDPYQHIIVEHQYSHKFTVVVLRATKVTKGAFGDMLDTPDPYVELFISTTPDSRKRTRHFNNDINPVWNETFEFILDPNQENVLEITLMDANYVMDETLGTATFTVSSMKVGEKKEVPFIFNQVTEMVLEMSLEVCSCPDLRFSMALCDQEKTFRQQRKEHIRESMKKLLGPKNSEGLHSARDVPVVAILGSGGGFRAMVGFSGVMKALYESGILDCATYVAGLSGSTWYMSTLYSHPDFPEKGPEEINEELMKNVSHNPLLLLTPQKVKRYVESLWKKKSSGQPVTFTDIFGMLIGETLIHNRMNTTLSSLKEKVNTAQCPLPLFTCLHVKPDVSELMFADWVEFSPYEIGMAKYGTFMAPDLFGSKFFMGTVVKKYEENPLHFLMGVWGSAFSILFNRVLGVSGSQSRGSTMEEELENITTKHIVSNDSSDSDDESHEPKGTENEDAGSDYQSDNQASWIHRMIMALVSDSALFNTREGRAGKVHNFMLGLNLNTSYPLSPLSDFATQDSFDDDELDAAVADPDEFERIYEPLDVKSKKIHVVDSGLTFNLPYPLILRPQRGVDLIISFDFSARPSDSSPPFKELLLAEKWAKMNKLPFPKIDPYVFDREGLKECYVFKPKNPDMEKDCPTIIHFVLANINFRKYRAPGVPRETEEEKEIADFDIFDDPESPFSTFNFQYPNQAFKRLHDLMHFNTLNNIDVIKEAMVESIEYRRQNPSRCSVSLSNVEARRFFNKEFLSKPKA
- Test Details: Inhibition of human group 4A cPLA2 at 0.091 mol fraction by mixed micelle-based assay
Measured inhibition, listed per entry.
Measure Name: inhibition (%)

INSERT INTO assay_data (compound, target_under_test, measure_name, result_qualifier, recorded_measurement) VALUES
  ('CCCCCCCCCCCCCCC(F)C(=O)C(F)(F)F (centres undefined)', 'Cytosolic phospholipase A2 (Homo sapiens) (UniProt P47712)', 'inhibition', '=', 94),
  ('O=C(CCCCCCc1ccccc1)C(F)(F)F', 'Cytosolic phospholipase A2 (Homo sapiens) (UniProt P47712)', 'inhibition', '=', 68),
  ('CCCCCCCCCCOc1ccc(CCCCC(=O)C(F)(F)F)cc1', 'Cytosolic phospholipase A2 (Homo sapiens) (UniProt P47712)', 'inhibition', '=', 95),
  ('O=C(CCCCCc1ccccc1)C(F)(F)C(F)(F)F', 'Cytosolic phospholipase A2 (Homo sapiens) (UniProt P47712)', 'inhibition', '=', 56),
  ('O=C(CCCCc1ccccc1)C(F)(F)F', 'Cytosolic phospholipase A2 (Homo sapiens) (UniProt P47712)', 'inhibition', '=', 38),
  ('OC(O)(C(F)(F)F)C(F)(F)CCCc1ccccc1', 'Cytosolic phospholipase A2 (Homo sapiens) (UniProt P47712)', 'inhibition', '=', 27),
  ('CCCCCCCCCCCCCCCC(=O)C(F)(F)C(F)(F)F', 'Cytosolic phospholipase A2 (Homo sapiens) (UniProt P47712)', 'inhibition', '<', 25),
  ('O=C(CCc1ccc(OCc2ccccc2)cc1)C(F)(F)F', 'Cytosolic phospholipase A2 (Homo sapiens) (UniProt P47712)', 'inhibition', '=', 88),
  ('CCCCCCOc1ccc(CCC(=O)C(F)(F)C(F)(F)F)cc1', 'Cytosolic phospholipase A2 (Homo sapiens) (UniProt P47712)', 'inhibition', '=', 73);

* * *

- Target Under Test: 85/88 kDa calcium-independent phospholipase A2 (Homo sapiens) (UniProt O60733)
- Sequence (O60733 whole entry): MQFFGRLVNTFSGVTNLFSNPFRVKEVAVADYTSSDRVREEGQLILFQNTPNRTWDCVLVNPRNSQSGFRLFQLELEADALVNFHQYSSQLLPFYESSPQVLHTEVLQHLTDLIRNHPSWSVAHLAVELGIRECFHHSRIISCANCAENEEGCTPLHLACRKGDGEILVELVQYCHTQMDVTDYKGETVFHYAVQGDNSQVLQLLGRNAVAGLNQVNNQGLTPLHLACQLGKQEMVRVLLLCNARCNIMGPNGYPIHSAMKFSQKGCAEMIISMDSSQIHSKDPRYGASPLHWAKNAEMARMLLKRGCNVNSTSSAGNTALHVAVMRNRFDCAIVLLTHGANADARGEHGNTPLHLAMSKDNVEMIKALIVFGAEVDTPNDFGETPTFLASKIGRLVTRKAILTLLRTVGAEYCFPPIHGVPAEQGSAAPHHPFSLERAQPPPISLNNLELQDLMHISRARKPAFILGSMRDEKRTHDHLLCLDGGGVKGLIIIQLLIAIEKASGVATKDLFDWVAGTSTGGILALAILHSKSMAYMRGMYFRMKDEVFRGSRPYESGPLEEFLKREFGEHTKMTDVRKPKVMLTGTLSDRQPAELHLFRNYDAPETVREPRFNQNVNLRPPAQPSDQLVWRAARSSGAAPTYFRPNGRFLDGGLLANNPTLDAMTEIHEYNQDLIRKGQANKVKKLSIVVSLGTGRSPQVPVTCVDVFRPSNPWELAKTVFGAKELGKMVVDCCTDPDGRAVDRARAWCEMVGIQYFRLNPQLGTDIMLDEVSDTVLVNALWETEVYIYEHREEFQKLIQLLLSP
- Test Details: Inhibition of human group 6A iPLA2 by mixed micelle-based assay
Kindly apply the following: TRUE if XI50 is less than 0.007, FALSE in every other case.

INSERT INTO measurements (molecule, target_under_test, class) VALUES
  ('CCCCCCCCCCCCCCC(F)C(=O)C(F)(F)F (configuration not stated)', '85/88 kDa calcium-independent phospholipase A2 (Homo sapiens) (UniProt O60733)', 'TRUE'),
  ('CCCCCCOc1ccc(CCC(=O)C(F)(F)C(F)(F)F)cc1', '85/88 kDa calcium-independent phospholipase A2 (Homo sapiens) (UniProt O60733)', 'FALSE'),
  ('CCCCCCCCCCCCCCCC(=O)C(F)(F)F', '85/88 kDa calcium-independent phospholipase A2 (Homo sapiens) (UniProt O60733)', 'FALSE'),
  ('CCCCCCCCCCOc1ccc(CCCCC(=O)C(F)(F)F)cc1', '85/88 kDa calcium-independent phospholipase A2 (Homo sapiens) (UniProt O60733)', 'FALSE'),
  ('O=C(CCCCc1ccccc1)C(F)(F)C(F)(F)F', '85/88 kDa calcium-independent phospholipase A2 (Homo sapiens) (UniProt O60733)', 'FALSE'),
  ('O=C(CCCCCCc1ccccc1)C(F)(F)F', '85/88 kDa calcium-independent phospholipase A2 (Homo sapiens) (UniProt O60733)', 'TRUE'),
  ('O=C(CCCCc1ccccc1)C(F)(F)F', '85/88 kDa calcium-independent phospholipase A2 (Homo sapiens) (UniProt O60733)', 'FALSE');

* * *

Measured inhibition, listed per entry.
- Target Under Test: UniProt:P39877
- Sequence (P39877 whole entry): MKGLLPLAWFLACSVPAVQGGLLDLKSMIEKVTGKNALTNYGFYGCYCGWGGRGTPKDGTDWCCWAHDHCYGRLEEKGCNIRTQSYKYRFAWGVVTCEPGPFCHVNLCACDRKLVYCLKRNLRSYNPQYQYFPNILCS
- Test Details: Inhibition of human group 5 sPLA2 at 0.091 mol fraction by mixed micelle-based assay
Measure Name: inhibition (%)

INSERT INTO results (compound, measure_name, result_qualifier, recorded_measurement) VALUES
  ('CCCCCCCCCCCCCCCC(=O)C(F)(F)F', 'inhibition', '=', 79),
  ('O=C(CCCCCc1ccccc1)C(F)(F)F', 'inhibition', '=', 48),
  ('CCCCCCOc1ccc(CCCCC(=O)C(F)(F)F)cc1', 'inhibition', '=', 86),
  ('CCCCCCCCCCOc1ccc(CCC(=O)C(F)(F)F)cc1', 'inhibition', '=', 80),
  ('OC(O)(C(F)(F)F)C(F)(F)CCCc1ccccc1', 'inhibition', '=', 59),
  ('O=C(CCCCCCc1ccccc1)C(F)(F)F', 'inhibition', '=', 53),
  ('O=C(CCCCCc1ccccc1)C(F)(F)C(F)(F)F', 'inhibition', '=', 46),
  ('O=C(CCCCCCc1ccccc1)C(F)(F)C(F)(F)F', 'inhibition', '=', 75),
  ('CCCCCCCCCCOc1ccc(CCCCC(=O)C(F)(F)F)cc1', 'inhibition', '=', 84),
  ('CCCCCCCCCCCCCCC(F)C(=O)C(F)(F)F (stereo unspecified)', 'inhibition', '=', 86),
  ('CCCCCCCCCCCCCCCC(=O)C(F)(F)C(F)(F)F', 'inhibition', '=', 43),
  ('O=C(CCCCc1ccccc1)C(F)(F)C(F)(F)F', 'inhibition', '=', 28),
  ('CCCCCCOc1ccc(CCC(=O)C(F)(F)F)cc1', 'inhibition', '=', 82),
  ('CCCCCCOc1ccc(CCC(=O)C(F)(F)C(F)(F)F)cc1', 'inhibition', '=', 86),
  ('O=C(CCc1ccc(OCc2ccccc2)cc1)C(F)(F)F', 'inhibition', '=', 49),
  ('O=C(CCCCc1ccccc1)C(F)(F)F', 'inhibition', '<', 25);

* * *

- Target Under Test: Cytosolic phospholipase A2 (Homo sapiens) (UniProt P47712)
- Test Details: Inhibition of human group 4A cPLA2 by mixed micelle-based assay
Measure Name: XI50

INSERT INTO results (compound, recorded_measurement) VALUES
  ('CCCCCCCCCCOc1ccc(CCC(=O)C(F)(F)F)cc1', 0.0156),
  ('CCCCCCCCCCCCCCC(F)C(=O)C(F)(F)F (stereo unspecified)', 0.0167),
  ('CCCCCCCCCCOc1ccc(CCCCC(=O)C(F)(F)F)cc1', 0.0116),
  ('CCCCCCOc1ccc(CCC(=O)C(F)(F)F)cc1', 0.0199),
  ('CCCCCCOc1ccc(CCCCC(=O)C(F)(F)F)cc1', 0.0098),
  ('CCCCCCCCCCCCCCCC(=O)C(F)(F)F', 0.0223);

* * *

- Target Under Test: 85/88 kDa calcium-independent phospholipase A2 (Homo sapiens)
- Test Details: Inhibition of human group 6A iPLA2 at 0.091 mol fraction by mixed micelle-based assay
Measure Name: inhibition (%)

INSERT INTO assay_data (compound, units_symbol, recorded_measurement) VALUES
  ('O=C(CCCCc1ccccc1)C(F)(F)F', '%', 96),
  ('O=C(CCCCCc1ccccc1)C(F)(F)F', '%', 96),
  ('O=C(CCCCc1ccccc1)C(F)(F)C(F)(F)F', '%', 98),
  ('OC(O)(C(F)(F)F)C(F)(F)CCCc1ccccc1', '%', 49),
  ('O=C(CCc1ccc(OCc2ccccc2)cc1)C(F)(F)F', '%', 71),
  ('CCCCCCCCCCCCCCC(F)C(=O)C(F)(F)F (configuration not stated)', '%', 93),
  ('O=C(CCCCCCc1ccccc1)C(F)(F)C(F)(F)F', '%', 98);

* * *

- Target Under Test: Cytosolic phospholipase A2 (Homo sapiens)
- Test Details: Inhibition of human group 4A cPLA2 at 0.091 mol fraction by mixed micelle-based assay
Measure Name: inhibition (%)

INSERT INTO measurements (entry_smiles, result_qualifier, recorded_measurement) VALUES
  ('CCCCCCOc1ccc(CCC(=O)C(F)(F)F)cc1', '=', 91),
  ('CCCCCCCCCCOc1ccc(CCC(=O)C(F)(F)F)cc1', '=', 96),
  ('CCCCCCOc1ccc(CCCCC(=O)C(F)(F)F)cc1', '=', 92),
  ('CCCCCCCCCCCCCCCC(=O)C(F)(F)F', '=', 96),
  ('O=C(CCCCCCc1ccccc1)C(F)(F)C(F)(F)F', '=', 65),
  ('O=C(CCCCc1ccccc1)C(F)(F)C(F)(F)F', '<', 25),
  ('O=C(CCCCCc1ccccc1)C(F)(F)F', '=', 62);
